Reference source: ChEMBL document CHEMBL4382207

I'd be grateful if you could share measured inhibition for these entries.
Target System: c-Myc/Max (Homo sapiens, UniProt P01106+P61244)
Procedure Text: Inhibition of Myc-Max (unknown origin) expressed in human LNCAP cells assessed as reduction in transcriptional activity at 25 uM after 1 day by luciferase reporter gene assay relative to control
Format: cell-based
Form entry: value (%) — number only.

Data request, read-out inhibition, for O=C(CN1C(=O)NC2(CCCC2)C1=O)Nc1cccc(C(F)(F)F)c1
65

Entry to check: CC(=O)Nc1ccc(Nc2cc(Cl)c(C(F)(F)F)cc2[N+](=O)[O-])cc1
81

Entry to check: O=[N+]([O-])c1ccc(Nc2ccccc2-c2ccccc2)c2nonc12
88

Entry to check: O=C1/C(=C/c2cccs2)SC(=S)N1c1cccc(O)c1
65

Entry to check: S=C(NCc1ccc(Cl)c(Cl)c1)Nc1cccnc1
73

Entry to check: NC(=O)c1ccsc1NC(=O)Nc1cccc(C(F)(F)F)c1
95
